tested on: thrombin/fibrinogen interaction; experiment: Inhibition of fibrin generation by arginine (FIFTA turbidity); type: biochemical; conditions: read-out: arginine conc. at halfmaximal turbidity increase; arginine acts since the begin of thrombin action
Readout Kind: IC50 (mM)

[[record]]
compound = "N=C(N)NCCC[C@H](N)C(=O)O [arginine]"
readout_kind = "IC50"
measured_number = 62.5


----------
Molecular target: fibrinogen in human plasma (Homo sapiens, UniProt P02671+P02675+P02679)
Construct: 200 μl of 256% of norm active fibrinogen in P-Pool; from tissue; host or cells: pooled citrated human patient plasma (P-Pool / Fbgen-Pool)
Sequence (P02671 20-629 isoform P02671-2 limits assumed): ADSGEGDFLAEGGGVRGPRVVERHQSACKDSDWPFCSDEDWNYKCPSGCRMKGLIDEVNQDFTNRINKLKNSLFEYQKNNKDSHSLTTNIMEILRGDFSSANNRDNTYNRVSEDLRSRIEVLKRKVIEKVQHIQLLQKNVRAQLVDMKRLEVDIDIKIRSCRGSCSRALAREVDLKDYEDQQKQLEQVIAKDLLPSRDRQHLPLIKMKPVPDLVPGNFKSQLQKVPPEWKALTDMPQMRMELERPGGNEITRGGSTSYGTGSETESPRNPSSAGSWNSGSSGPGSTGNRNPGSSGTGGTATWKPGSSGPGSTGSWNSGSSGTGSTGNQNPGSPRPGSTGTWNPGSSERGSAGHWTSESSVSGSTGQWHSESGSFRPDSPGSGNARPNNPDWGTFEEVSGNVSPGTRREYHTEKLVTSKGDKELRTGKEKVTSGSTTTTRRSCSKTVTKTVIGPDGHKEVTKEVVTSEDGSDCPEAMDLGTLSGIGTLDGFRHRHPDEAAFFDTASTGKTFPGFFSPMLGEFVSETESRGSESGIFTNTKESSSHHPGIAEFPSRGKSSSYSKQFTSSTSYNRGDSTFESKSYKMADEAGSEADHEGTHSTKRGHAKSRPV
Sequence (P02675 31-491): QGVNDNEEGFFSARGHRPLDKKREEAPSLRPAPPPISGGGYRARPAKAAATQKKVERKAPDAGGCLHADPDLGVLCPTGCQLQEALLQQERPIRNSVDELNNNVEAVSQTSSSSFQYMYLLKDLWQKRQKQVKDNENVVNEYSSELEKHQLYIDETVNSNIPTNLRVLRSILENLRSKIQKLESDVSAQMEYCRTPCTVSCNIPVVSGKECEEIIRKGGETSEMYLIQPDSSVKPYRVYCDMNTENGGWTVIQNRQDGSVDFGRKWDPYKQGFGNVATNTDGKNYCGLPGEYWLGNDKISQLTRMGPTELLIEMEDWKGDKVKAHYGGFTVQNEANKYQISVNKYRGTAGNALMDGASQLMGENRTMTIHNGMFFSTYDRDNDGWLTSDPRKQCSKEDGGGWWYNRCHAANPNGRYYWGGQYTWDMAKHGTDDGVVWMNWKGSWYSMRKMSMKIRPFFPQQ
Sequence (P02679 27-437 isoform P02679-2 limits assumed): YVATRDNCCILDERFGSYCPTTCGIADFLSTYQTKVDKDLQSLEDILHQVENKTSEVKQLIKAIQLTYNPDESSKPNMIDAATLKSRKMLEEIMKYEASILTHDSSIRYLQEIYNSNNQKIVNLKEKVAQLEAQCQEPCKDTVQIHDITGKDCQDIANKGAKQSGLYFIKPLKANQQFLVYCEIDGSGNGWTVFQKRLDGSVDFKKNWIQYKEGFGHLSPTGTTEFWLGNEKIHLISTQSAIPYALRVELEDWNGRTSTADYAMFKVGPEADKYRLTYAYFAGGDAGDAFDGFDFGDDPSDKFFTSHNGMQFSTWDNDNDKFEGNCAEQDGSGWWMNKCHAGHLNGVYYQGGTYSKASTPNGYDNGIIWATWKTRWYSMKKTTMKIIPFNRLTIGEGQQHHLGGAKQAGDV
Test: Inactivation of fibrinogen by vancomycin or chloramine-T (FIFTA read-out)
Type: biochemical
Details: 15 min 37° C. incubation in plasma, then FIFTA; read-out: IC50 against plasmatic fibrinogen
Readout Kind: IC50

[[record]]
molecule = "Cc1ccc(S(=O)(=O)[N-]Cl)cc1.[Na+] [chloramine-T®, chloramine-T]"
experimental_system = "fibrinogen in human plasma (Homo sapiens, UniProt P02671+P02675+P02679)"
result = "~2000 µM"

